Tested on: HCT-15 colon
assay.text: NCI tumour cell line growth inhibition, 48 h
List of TGI values.

molecule	TGI
NC(N)=NNC(=O)C(=O)O	> 100 µM
C=C1C(O)C2C(=C(CC(C)C)C13CC3)C(=O)C(C)(C)C2OC (stereo unspecified)	> 100 µM
COC(=O)c1ccc2c(c1)c1c(C)c3cnccc3c(C)c1n2C	1.38 µM
COC(=O)c1c(O)ccc2c1c1c(n2C)C(=O)c2ccccc2C1=O	> 100 µM
NC(N)=N/N=C/c1c(-c2cc(Cl)sc2Cl)nc2n1CCS2	16.6 µM

So what does the record say about TGI for C=C[C@H]1CN2CC[C@H]1C[C@@H]2[C@@H](O)c1ccnc2ccccc12 ?
> 100 µM

Attribution: PubChem BioAssay (NCI)
